Hey, just so you know, these numbers are from ChEMBL document CHEMBL5705893.

target: Mitotic checkpoint serine/threonine-protein kinase BUB1 (Homo sapiens, UniProt O43683); assay: Inhibition of recombinant BUB1 (unknown origin)
Sequence (O43683 whole entry): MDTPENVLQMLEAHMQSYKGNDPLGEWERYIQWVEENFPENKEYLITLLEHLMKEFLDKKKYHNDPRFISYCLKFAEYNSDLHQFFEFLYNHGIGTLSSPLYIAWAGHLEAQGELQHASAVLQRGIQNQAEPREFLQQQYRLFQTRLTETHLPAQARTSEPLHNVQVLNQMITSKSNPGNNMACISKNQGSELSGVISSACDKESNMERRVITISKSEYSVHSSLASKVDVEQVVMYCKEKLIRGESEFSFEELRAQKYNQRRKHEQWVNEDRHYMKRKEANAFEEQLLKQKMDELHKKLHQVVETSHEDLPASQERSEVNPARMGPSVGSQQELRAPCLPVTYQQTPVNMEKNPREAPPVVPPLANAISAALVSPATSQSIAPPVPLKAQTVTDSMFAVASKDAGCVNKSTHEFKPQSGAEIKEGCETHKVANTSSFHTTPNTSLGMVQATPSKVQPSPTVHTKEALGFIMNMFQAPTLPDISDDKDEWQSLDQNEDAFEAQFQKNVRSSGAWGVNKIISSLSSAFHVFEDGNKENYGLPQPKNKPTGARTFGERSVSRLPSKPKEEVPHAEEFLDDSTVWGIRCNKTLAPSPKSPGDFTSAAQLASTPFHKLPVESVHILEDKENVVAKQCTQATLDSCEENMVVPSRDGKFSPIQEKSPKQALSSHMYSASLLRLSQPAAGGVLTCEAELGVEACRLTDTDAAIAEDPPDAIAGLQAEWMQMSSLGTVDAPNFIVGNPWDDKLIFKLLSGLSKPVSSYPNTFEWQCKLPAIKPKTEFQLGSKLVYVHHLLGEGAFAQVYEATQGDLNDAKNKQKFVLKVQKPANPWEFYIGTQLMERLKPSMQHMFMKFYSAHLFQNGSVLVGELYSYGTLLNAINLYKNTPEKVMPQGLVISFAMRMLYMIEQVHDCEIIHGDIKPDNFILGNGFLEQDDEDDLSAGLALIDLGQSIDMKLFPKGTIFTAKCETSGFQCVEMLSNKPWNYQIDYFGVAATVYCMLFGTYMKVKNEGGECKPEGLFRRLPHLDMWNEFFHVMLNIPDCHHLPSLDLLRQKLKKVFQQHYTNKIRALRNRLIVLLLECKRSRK
Property Label: IC50

O=C1c2ccccc2-c2n[nH]c3cccc1c23 : > 10 µM

Requested read-out: IC50. Entry: CCc1cccc(CC)c1NC(=O)c1nn(C)c2c1CCc1cnc(Nc3ccc(C(=O)NC4CCN(C)CC4)cc3OC(F)(F)F)nc1-2
> 10 µM

###

target: Non-receptor tyrosine-protein kinase TYK2 (Homo sapiens, UniProt P29597); test: Inhibition of recombinant TYK 2 (unknown origin)
Sequence (P29597 whole entry): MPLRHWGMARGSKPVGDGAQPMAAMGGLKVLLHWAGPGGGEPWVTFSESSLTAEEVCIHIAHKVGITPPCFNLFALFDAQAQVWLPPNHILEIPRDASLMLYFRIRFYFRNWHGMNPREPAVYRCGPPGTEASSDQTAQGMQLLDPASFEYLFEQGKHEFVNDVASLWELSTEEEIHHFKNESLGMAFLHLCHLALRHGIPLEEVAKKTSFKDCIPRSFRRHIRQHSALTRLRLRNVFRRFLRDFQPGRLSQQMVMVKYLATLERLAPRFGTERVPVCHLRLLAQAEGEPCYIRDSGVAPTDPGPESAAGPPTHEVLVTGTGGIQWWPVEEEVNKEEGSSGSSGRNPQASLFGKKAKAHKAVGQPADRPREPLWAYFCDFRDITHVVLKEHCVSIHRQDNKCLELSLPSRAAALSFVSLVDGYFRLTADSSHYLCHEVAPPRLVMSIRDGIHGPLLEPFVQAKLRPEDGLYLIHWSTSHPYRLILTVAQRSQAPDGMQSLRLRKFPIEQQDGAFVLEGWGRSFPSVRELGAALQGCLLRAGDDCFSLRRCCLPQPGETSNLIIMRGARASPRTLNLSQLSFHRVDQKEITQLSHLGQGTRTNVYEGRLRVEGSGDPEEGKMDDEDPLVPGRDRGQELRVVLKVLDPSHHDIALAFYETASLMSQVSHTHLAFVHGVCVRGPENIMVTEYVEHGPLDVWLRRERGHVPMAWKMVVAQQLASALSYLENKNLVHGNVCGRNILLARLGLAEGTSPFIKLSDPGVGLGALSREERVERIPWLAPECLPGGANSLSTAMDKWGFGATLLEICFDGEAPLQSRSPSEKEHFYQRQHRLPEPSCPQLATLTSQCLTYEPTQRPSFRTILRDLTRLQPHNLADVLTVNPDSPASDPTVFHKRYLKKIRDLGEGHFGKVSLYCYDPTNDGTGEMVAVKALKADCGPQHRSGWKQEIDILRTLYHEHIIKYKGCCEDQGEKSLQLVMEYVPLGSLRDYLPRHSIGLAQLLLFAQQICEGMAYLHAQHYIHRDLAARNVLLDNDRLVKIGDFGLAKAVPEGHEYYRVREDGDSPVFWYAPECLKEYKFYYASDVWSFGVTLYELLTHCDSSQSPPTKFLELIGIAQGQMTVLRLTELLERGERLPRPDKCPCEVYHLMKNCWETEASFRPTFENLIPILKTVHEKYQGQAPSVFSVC
Property Label: pIC50
Formally, pIC50 is defined as -log10 of the concentration c, with c in mol/L.

Requested read-out: pIC50. Entry: O=C1c2ccccc2-c2n[nH]c3cccc1c23
6.06

###

assay: Antiproliferative activity against human GM13705 cells assessed as inhibition of cell growth incubated for 72 hrs by celltiter-glo assay; assay type: functional, cell-based; conditions: GM13705, 72 h
Property Label: IC50 (µM)
Reply numerically in µM, unit not repeated.

Requested read-out: IC50. Entry: CCc1cccc(CC)c1NC(=O)c1nn(C)c2c1CCc1cnc(Nc3ccc(C(=O)NC4CCN(C)CC4)cc3OC(F)(F)F)nc1-2
10

###

system: SK-MEL-5; assay: Antiproliferative activity against human SK-MEL-5 cells assessed as inhibition of cell growth incubated for 72 hrs by celltiter-glo assay; format: functional, cell-based; conditions: SK-MEL-5, 72 h
Property Label: pIC50
Formally, pIC50 is defined as -log10 of the concentration c, with c in mol/L.

Give the reported pIC50 for CCc1cccc(CC)c1NC(=O)c1nn(C)c2c1CCc1cnc(Nc3ccc(C(=O)NC4CCN(C)CC4)cc3OC(F)(F)F)nc1-2 (system: SK-MEL-5).
5.35

###

target: Mitogen-activated protein kinase 14 (Homo sapiens, UniProt Q16539); assay: Inhibition of recombinant P38alpha (unknown origin)
Sequence (Q16539 whole entry): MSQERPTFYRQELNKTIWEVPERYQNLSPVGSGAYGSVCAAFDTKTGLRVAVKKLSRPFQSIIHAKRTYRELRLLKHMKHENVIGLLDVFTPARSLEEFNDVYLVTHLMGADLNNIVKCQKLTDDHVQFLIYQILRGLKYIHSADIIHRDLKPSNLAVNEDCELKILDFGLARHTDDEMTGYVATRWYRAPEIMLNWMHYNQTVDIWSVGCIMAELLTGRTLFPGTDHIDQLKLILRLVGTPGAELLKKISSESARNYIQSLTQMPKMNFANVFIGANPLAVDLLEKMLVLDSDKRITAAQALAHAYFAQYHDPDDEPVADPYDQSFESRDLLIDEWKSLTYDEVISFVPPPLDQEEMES
Property Label: IC50

Requested read-out: IC50. Entry: CCc1cccc(CC)c1NC(=O)c1nn(C)c2c1CCc1cnc(Nc3ccc(C(=O)NC4CCN(C)CC4)cc3OC(F)(F)F)nc1-2
> 10 µM

###

molecular target: ALK tyrosine kinase receptor (Homo sapiens, UniProt Q9UM73); experiment: Inhibition of recombinant ALK (unknown origin)
Sequence (Q9UM73 whole entry): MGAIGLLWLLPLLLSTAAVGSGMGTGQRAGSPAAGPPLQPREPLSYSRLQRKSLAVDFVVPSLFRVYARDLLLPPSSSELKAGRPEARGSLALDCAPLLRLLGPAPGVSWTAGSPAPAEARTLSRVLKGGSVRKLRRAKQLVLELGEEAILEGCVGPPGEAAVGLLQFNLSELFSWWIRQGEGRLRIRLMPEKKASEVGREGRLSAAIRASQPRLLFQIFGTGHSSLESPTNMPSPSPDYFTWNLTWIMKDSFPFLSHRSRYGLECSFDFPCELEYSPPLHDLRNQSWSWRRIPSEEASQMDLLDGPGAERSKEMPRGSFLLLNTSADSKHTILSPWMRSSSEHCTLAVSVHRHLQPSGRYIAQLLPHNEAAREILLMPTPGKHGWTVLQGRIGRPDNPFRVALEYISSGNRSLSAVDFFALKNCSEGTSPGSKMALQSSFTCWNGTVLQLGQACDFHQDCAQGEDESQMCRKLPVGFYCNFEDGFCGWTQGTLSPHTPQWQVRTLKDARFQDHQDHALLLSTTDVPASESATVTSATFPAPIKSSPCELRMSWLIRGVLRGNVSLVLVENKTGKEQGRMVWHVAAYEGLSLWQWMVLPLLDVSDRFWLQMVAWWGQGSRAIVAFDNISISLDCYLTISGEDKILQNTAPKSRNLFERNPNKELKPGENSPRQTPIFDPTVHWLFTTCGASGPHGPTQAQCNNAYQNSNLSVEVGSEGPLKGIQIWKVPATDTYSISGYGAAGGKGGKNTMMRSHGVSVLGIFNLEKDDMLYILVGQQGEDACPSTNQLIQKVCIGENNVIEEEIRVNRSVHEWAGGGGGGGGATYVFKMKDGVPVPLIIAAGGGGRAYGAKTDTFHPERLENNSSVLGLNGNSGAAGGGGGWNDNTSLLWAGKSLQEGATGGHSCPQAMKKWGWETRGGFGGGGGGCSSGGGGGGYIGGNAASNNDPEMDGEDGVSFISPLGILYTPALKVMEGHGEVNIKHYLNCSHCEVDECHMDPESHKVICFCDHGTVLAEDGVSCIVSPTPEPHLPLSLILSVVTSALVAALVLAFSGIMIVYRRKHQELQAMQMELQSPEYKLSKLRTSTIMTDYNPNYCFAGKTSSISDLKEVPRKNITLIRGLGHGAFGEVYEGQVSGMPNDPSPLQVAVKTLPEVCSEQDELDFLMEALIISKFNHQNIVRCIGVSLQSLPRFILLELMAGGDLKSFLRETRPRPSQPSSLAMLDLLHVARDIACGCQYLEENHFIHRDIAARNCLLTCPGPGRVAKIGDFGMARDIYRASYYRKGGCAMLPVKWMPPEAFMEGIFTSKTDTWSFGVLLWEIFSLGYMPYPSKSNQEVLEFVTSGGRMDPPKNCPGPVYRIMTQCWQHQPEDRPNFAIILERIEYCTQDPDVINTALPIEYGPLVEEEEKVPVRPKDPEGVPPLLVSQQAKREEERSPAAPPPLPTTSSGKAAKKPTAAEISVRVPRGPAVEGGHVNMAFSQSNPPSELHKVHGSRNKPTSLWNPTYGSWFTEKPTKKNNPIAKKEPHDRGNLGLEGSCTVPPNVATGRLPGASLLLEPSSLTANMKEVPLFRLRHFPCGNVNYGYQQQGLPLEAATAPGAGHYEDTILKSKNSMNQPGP
Property Label: IC50

O=C1c2ccccc2-c2n[nH]c3cccc1c23 : > 10 µM

Would you kindly look at the next entry?
Requested read-out: IC50. Entry: CCc1cccc(CC)c1NC(=O)c1nn(C)c2c1CCc1cnc(Nc3ccc(C(=O)NC4CCN(C)CC4)cc3OC(F)(F)F)nc1-2
> 10 µM

###

target: Tyrosine-protein kinase Lyn (Homo sapiens); assay: Inhibition of recombinant LYN (unknown origin)
Sequence (P07948 whole entry): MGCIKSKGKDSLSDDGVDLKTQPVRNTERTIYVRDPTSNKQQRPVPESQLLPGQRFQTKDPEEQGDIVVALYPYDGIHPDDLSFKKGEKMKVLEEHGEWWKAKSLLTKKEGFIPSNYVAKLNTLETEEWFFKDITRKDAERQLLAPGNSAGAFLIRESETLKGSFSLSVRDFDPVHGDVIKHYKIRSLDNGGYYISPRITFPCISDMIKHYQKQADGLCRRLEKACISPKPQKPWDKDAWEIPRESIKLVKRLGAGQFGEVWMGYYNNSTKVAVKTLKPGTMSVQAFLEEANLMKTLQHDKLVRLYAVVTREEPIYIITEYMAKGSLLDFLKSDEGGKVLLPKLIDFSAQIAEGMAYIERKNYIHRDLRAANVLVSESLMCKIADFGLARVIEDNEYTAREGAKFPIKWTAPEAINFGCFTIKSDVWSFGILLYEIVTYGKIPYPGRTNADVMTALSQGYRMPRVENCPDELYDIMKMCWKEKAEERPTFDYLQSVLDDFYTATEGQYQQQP
Quick reference: IC50 of the listed items.

Requested read-out: IC50. Entry: O=C1c2ccccc2-c2n[nH]c3cccc1c23
> 10 µM

Requested read-out: IC50. Entry: CCc1cccc(CC)c1NC(=O)c1nn(C)c2c1CCc1cnc(Nc3ccc(C(=O)NC4CCN(C)CC4)cc3OC(F)(F)F)nc1-2
> 10 µM

###

system: SW-620; test: Antiproliferative activity against human SW620 cells assessed as inhibition of cell growth incubated for 72 hrs by celltiter-glo assay; type: functional, cell-based; conditions: SW-620, 72 h
Property Label: IC50 (nM)
Reply numerically in nM, unit not repeated.

Requested read-out: IC50. Entry: CCc1cccc(CC)c1NC(=O)c1nn(C)c2c1CCc1cnc(Nc3ccc(C(=O)NC4CCN(C)CC4)cc3OC(F)(F)F)nc1-2
472

###

system: SUD4; assay: Antiproliferative activity against human SU-DHL-4 cells assessed as inhibition of cell growth incubated for 72 hrs by celltiter-glo assay; assay type: functional, cell-based; conditions: SU-DHL-4, 72 h
Property Label: IC50 (nM)
Reply numerically in nM, unit not repeated.

Give the reported IC50 for CCc1cccc(CC)c1NC(=O)c1nn(C)c2c1CCc1cnc(Nc3ccc(C(=O)NC4CCN(C)CC4)cc3OC(F)(F)F)nc1-2 (system: SUD4).
1600

###

test: AUC in Athymic nu-nu mouse at 10 mg/kg, po measured upto 24 hrs by LC-MS/MS analysis; type: ADME, organism-based; conditions: in vivo
Property Label: AUC at 24 h (µM·h)
Reply numerically in µM·h, unit not repeated.

Requested read-out: AUC at 24 h. Entry: CCc1cccc(CC)c1NC(=O)c1nn(C)c2c1CCc1cnc(Nc3ccc(C(=O)NC4CCN(C)CC4)cc3OC(F)(F)F)nc1-2
8.66

###

system: MIA PaCa-2; assay: Antiproliferative activity against human MIA PaCa-2 cells assessed as inhibition of cell growth incubated for 72 hrs by celltiter-glo assay; assay type: functional, cell-based; conditions: MIA PaCa-2, 72 h
Property Label: IC50 (nM)
Reply numerically in nM, unit not repeated.

Requested read-out: IC50. Entry: CCc1cccc(CC)c1NC(=O)c1nn(C)c2c1CCc1cnc(Nc3ccc(C(=O)NC4CCN(C)CC4)cc3OC(F)(F)F)nc1-2
2550

###

system: HCT-15; experiment: Antiproliferative activity against human HCT-15 cells assessed as inhibition of cell growth incubated for 72 hrs by celltiter-glo assay; format: functional, cell-based; conditions: HCT-15, 72 h
Property Label: IC50 (nM)
Reply numerically in nM, unit not repeated.

Requested read-out: IC50. Entry: CCc1cccc(CC)c1NC(=O)c1nn(C)c2c1CCc1cnc(Nc3ccc(C(=O)NC4CCN(C)CC4)cc3OC(F)(F)F)nc1-2
232
